# System name: SRSF protein kinase 3 (Homo sapiens) (UniProt Q9UPE1);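 note: values are mean inhibition of MSSK1 (alias of SRPK3)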
# Sequence (Q9UPE1 whole entry): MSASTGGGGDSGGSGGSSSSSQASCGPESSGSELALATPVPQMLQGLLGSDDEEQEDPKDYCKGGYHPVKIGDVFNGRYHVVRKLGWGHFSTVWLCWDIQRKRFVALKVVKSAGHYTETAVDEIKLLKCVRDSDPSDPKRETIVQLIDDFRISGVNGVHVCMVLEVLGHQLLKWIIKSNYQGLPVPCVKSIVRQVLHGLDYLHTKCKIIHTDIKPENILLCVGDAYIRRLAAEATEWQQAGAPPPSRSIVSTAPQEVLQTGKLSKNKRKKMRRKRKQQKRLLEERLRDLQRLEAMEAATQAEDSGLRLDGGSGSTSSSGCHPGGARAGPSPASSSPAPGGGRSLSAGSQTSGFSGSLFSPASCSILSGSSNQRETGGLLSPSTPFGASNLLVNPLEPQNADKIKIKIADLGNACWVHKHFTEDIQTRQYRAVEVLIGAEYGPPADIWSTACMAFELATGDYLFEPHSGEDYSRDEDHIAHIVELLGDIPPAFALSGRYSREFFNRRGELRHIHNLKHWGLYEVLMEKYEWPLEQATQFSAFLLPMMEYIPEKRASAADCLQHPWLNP
# Run parameters: at 1 µM
inhibition values by entry
Property: inhibition (%)

Molecule	Reported measurement
NC(=O)c1ccc(Oc2nccc(-c3c(-c4ccc(F)cc4)ncn3C3CCNCC3)n2)cc1	-0.11
COc1ccc2cc(-c3c(-c4ccncc4)nc(-c4ccc([S+](C)[O-])cc4C)n3C)ccc2c1 (stereo unspecified)	0.96
O=C(NCC1CC1)c1ccc(-c2cccc(C(=O)NC3CC3)c2)cc1	1.04
CN(C)CCCNc1nccc(-c2c(-c3ccc(F)cc3)nn3cc(C(F)(F)F)ccc23)n1	6.95
COc1ccc(-c2ccc3c(NC(=O)C4CC4)n[nH]c3n2)cc1	1.44
NC(=O)c1cc(-c2ccncc2)cc(-c2ccccc2)c1N	-0.93
CN(C)c1ccc2c(c1)/C(=C/Nc1ccc(S(N)(=O)=O)cc1)C(=O)N2	-1.04
Fc1ccc(-c2c(-c3ccncc3)nc3n2CCS3)cc1	1.49
O=C1NC(=O)C(c2cccc(Cl)c2)=C1Nc1ccc(Cl)c(C(=O)O)c1	0.44
O=C(Nc1n[nH]c2nc(-c3ccc(O)cc3)c(Br)cc12)C1CC1	7.81
COc1cc2ncn(-c3cc(OCc4ccccc4C(F)(F)F)c(C(C)=O)s3)c2cc1OC	1.07
NS(=O)(=O)c1ccc(N/N=C2\C(=O)Nc3ccc(C(=O)NCCCn4ccnc4)cc32)cc1	0.48
COc1cc2ncn(-c3cc(OCCc4ccccc4)c(C(N)=O)s3)c2cc1OC	0.18
O=C1Nc2ccc(I)cc2C1=Cc1cc(Br)c(O)c(Br)c1	0.2
CCC(=O)Nc1ccc(C)c(-c2ccc(C(=O)NCC3CC3)cc2)c1	-1.57
CNC(=O)c1cncc(/C=C/c2c(C)cccc2C)c1	2.87
NS(=O)(=O)c1ccc(Nc2cc(-c3ccc(O)c(F)c3)n[nH]2)cc1	0.03
CN(c1ccc(NC(=O)Nc2c(Cl)cccc2Cl)cc1)c1ccnc(Nc2cccc(CS(C)(=O)=O)c2)n1	2.4
C#Cc1cccc(Nc2ncnc3ccc(OCCCCNCCS(C)(=O)=O)cc23)c1	-2.44
O=C(Nc1n[nH]c2cc(-c3cc(F)ccc3F)ccc12)C1CC1	-2.21
CN(C)CCOc1ccc(-c2cc(-c3ccc4c(c3)CCC4=NO)c(-c3ccncc3)o2)cc1	-1.92
